Where do these numbers come from? They come from ChEMBL document CHEMBL1201862.

Tested on: DMS-114
Assay: NCI tumour cell line growth inhibition, 48 h
Activity calls are given as the source filed them. Cut-off read from the data, not from the text of the source: active = GI50 up to about 1.1 µM and inactive = higher.
endpoint: GI50

These solved cases illustrate the format of a correct answer.
compound | experimentalTarget | resultValue
Cc1cc(=O)c2c(O)cc3c(c2o1)CC=C(COC1OC(COC2OC(CO)C(O)C(O)C2O)C(O)C(O)C1O)CO3 (stereo not given) | DMS-114 | > 100 µM (inactive)
COc1ccc(/C=C(\NC(=O)c2ccccc2)c2nc3ccccc3[nH]2)cc1 | DMS-114 | 24.8 µM (inactive)
CNS(=O)(=O)NN(C)S(=O)(=O)c1ccc(OC)cc1 | DMS-114 | > 100 µM (inactive)
COC(=O)C1CC(C(=O)OC)c2nc3cc([N+](=O)[O-])ccc3nc21 (stereo not given) | DMS-114 | 16.3 µM (inactive)
CCOC(=O)C(N)CSC(=O)NC (stereo not given) | DMS-114 | 51.3 µM (inactive)
CC1OC(n2cc(Cl)c(=O)[nH]c2=O)C=C(OC(=O)c2ccccc2)C1=O (stereo not given) | DMS-114 | > 100 µM (inactive)

*Q* Item COc1ccc2c(c1OC)C1=C(C2=O)c2cc3c(cc2CCN1)OCO3 has what recorded GI50?
*A* 22.6 µM (inactive)

*Q* Item CC(=O)Oc1cc2c(=O)oc3c(OC(C)=O)c(OC(C)=O)c(OC(C)=O)c4c(=O)oc(c1OC(C)=O)c2c34 has what recorded GI50?
*A* 21.6 µM (inactive)

*Q* Item COC1(OC)C2(Cl)C(Cl)=C(Cl)C1(Cl)C1C2C2CC1(C(=O)O)c1ccccc12 (stereo not given) has what recorded GI50?
*A* 17.5 µM (inactive)

*Q* Item CCSC1(SCC)CCN(/C=N/C(C)(C)C)C1 has what recorded GI50?
*A* 44.7 µM (inactive)
